test system: High affinity choline transporter 1 (Homo sapiens)
Sequence (Q9GZV3 whole entry): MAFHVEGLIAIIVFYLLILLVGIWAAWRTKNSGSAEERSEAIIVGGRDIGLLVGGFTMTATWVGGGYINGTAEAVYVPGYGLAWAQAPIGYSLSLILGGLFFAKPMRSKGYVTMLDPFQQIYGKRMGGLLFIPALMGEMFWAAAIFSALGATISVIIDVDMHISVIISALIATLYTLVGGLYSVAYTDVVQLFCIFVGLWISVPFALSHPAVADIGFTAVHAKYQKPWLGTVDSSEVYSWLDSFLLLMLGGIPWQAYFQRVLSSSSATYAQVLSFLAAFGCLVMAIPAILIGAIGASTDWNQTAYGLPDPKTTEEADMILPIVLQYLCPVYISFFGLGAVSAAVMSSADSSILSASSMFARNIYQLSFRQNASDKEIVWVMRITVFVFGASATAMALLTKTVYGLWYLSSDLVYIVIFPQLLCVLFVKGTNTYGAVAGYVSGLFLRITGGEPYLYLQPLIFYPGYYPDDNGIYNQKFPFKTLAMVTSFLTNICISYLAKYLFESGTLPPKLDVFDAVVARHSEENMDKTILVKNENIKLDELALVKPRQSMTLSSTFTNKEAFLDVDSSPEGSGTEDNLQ
run description: human choline transporter blockers, potency – cell-based, 5-point CRC, membrane potential dye, dose response (AID 504840)
Format: functional
Activity calls are given as the source filed them.
observation type: IC50

Kindly give each listed record's IC50.
1. Cc1ccc(C)c(C(=O)COc2ncnc3ccccc23)c1
2. CCc1ccc(S(=O)(=O)NCc2cn3cccc(C)c3n2)s1
3. C=CCNc1ncnc2c1ncn2C1OC(CO)C(O)C1O (configuration not stated)

1. 15.1 µM (active)
2. 13.8 µM (active)
3. 9.17 µM (active)

###

test system: UniProt Q9GZR1
Sequence (Q9GZR1 whole entry): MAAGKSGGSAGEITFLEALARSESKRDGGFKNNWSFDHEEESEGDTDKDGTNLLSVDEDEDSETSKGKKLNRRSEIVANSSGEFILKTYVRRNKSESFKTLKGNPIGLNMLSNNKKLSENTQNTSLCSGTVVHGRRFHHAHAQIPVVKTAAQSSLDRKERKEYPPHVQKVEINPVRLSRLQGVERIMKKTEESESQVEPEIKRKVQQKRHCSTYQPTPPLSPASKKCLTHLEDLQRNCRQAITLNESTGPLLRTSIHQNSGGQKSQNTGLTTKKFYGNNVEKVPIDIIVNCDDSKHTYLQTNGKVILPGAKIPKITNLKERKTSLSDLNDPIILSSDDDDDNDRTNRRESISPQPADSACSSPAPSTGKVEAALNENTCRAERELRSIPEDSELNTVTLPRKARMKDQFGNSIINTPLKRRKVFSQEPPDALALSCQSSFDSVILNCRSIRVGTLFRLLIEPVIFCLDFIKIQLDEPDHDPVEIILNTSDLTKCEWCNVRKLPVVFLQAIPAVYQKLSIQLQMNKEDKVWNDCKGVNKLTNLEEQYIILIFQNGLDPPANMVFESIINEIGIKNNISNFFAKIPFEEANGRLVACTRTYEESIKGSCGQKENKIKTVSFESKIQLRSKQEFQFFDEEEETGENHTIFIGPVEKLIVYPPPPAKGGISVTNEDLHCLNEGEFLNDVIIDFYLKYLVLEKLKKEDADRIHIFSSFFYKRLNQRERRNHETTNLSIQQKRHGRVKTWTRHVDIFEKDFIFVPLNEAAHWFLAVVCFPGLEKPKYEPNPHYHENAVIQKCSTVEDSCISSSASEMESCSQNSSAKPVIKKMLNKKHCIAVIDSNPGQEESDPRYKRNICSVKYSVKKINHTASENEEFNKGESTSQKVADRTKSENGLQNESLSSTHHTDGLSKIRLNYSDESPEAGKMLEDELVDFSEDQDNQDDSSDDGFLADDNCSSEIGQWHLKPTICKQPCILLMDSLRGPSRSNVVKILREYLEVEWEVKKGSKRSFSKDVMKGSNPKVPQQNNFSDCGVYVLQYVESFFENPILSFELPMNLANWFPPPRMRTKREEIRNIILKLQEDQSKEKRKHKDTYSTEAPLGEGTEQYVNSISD
Format: functional
Calls of active or inactive are those of the source.
For each of the compounds below, state its IC50.

Past entries and their recorded results:
C/C(=N\OC(=O)c1ccc(Cl)cc1)c1nccs1 : 11.7 µM (active)
COc1ccc(-n2c(NC(=O)c3ccco3)c(C#N)c3nc4ccccc4nc32)cc1 : 4.07 µM (active)
CC1CCCC(NC(=O)COC(=O)c2ccc([N+](=O)[O-])s2)C1C (stereo unspecified) : 6.5 µM (active)

Value sought for every listed compound: IC50.
1. CCOC(=O)Nc1ccc2nc(N3CCCCCC3)sc2c1
2. O=C(Nc1cccc(Cl)c1)Nc1ccccc1C(=O)NCc1ccco1
3. O=C(/C=C/c1ccccc1)n1cnnc1SC/C=C/c1ccccc1

1: 33.1 µM (active); 2: 4.44 µM (active); 3: 15.2 µM (active)
